These entries and their values trace back to the supplement of paper PMC13380429.

Parameter: cell viability. Scope: all listed entries.
# System: HepG2
# TEST_NAME: cell viability relative to DMSO; higher = less toxic
# EXPERIMENTAL_CONDITIONS: 72 h; 10 nM
Counter-ions that a name gives are not always drawn.

COMPOUND: O=c1[nH]c(CCl)nc2sc3c(c12)CCCC3
cell viability / %: 94.5

COMPOUND: Cc1nc[nH]c1CCN
cell viability / %: 98.6

COMPOUND: CN(C)/N=N/c1[nH]cnc1C(N)=O
cell viability / %: 90.7

COMPOUND: NC(=O)c1ccc(-c2nc(-c3ccccn3)c(-c3ccc4c(c3)OCO4)[nH]2)cc1
cell viability / %: 93.6

COMPOUND: CN(C)CCOC(c1ccc(Cl)cc1)c1ccccn1 (stereo unspecified)
cell viability / %: 95.8

COMPOUND: c1ccc2c(-c3cnn4cc(-c5ccc(N6CCNCC6)cc5)cnc34)ccnc2c1
cell viability / %: 111

COMPOUND: CN1C(=O)N[C@H](Cc2c[nH]c3c(Cl)cccc23)C1=O
cell viability / %: 99.3

COMPOUND: Cc1c(C)c2c(c(C)c1O)CCC(C)(C(=O)O)O2 (stereo unspecified)
cell viability / %: 90.2

COMPOUND: Nc1ncnc2c1nc(Br)n2[C@@H]1O[C@@H]2COP(=O)(O)O[C@H]2[C@H]1O
cell viability / %: 96.5

COMPOUND: c1cncc(CN2CCC(n3ncc4c(N5CCOCC5)nc(-c5ccc6[nH]ccc6c5)nc43)CC2)c1
cell viability / %: 112

COMPOUND: CC1=C(CC(=O)O)c2cc(F)ccc2/C1=C\c1ccc([S+](C)[O-])cc1 (stereo unspecified)
cell viability / %: 90.2

COMPOUND: Cn1ncc2c(N3CCOCC3)nc(-c3cccc(O)c3)nc21
cell viability / %: 101

COMPOUND: Nc1ccccc1S(N)(=O)=O [2-aminobenzenesulfonamide]
cell viability / %: 99.5

COMPOUND: Cc1ccc(N(CC2=NCCN2)c2cccc(O)c2)cc1
cell viability / %: 96.5

COMPOUND: C=C1CC[C@@H]2[C@](C)(CO)[C@H](O)CC[C@@]2(C)[C@@H]1C/C=C1/C(=O)OC[C@H]1O [andrographolide]
cell viability / %: 99.2

COMPOUND: Cn1c(C#N)ccc1-c1ccc2c(c1)C(C)(C)OC(=S)N2
cell viability / %: 109

COMPOUND: COc1cccc2c1C(=O)c1c(O)c3c(c(O)c1C2=O)C[C@@](O)(C(=O)CO)C[C@@H]3O[C@H]1C[C@H](N)[C@@H](O)[C@H](C)O1 [Epirubicin Hydrochloride]
cell viability / %: 93.2

COMPOUND: Cc1ccc(S(=O)(=O)NCc2ccccc2)cc1
cell viability / %: 110

COMPOUND: NS(=O)(=O)C#Cc1ccccc1
cell viability / %: 89.3

COMPOUND: COc1ccc2c(c1)/C(=C/c1cnc[nH]1)C(=O)N2
cell viability / %: 105

COMPOUND: CC[C@H](C)[C@H](NC(=O)[C@H](Cc1ccc(O)cc1)NC(=O)[C@@H](NC(=O)[C@H](CCCNC(=N)N)NC(=O)[C@@H](N)CC(=O)O)C(C)C)C(=O)N[C@@H](Cc1c[nH]cn1)C(=O)N1CCC[C@H]1C(=O)O
cell viability / %: 105

====

# System: Calu-3
# TEST_NAME: cell viability relative to DMSO; higher = less toxic
# EXPERIMENTAL_CONDITIONS: 72 h; 1000 nM
Each entry below carries its reported cell viability.
VALUE_KIND: cell viability (%)

MOLECULE: NS(=O)(=O)C#Cc1ccccc1
VALUE_KIND: cell viability
UNITS_OF_MEASURE: %
DATA_VALUE: 111
--
MOLECULE: OCC[N+]12CN3CN(CN(C3)C1)C2
VALUE_KIND: cell viability
UNITS_OF_MEASURE: %
DATA_VALUE: 102
--
MOLECULE: CC(=O)NCC(=O)N1[C@@H]2CC[C@H]1c1ccc(Nc3ncc(C(F)(F)F)c(NC4CCC4)n3)cc12
VALUE_KIND: cell viability
UNITS_OF_MEASURE: %
DATA_VALUE: 121
--
MOLECULE: CCCCCCCCCCC(C)(C)C(=O)Nc1c(OC)cc(OC)cc1OC
VALUE_KIND: cell viability
UNITS_OF_MEASURE: %
DATA_VALUE: 112
--
MOLECULE: COc1ccc(C(=O)c2ccccc2O)c(O)c1
VALUE_KIND: cell viability
UNITS_OF_MEASURE: %
DATA_VALUE: 91.1
--
MOLECULE: O=C(O)CCCCC(CCSCc1ccccc1)SCc1ccccc1 (configuration not stated)
VALUE_KIND: cell viability
UNITS_OF_MEASURE: %
DATA_VALUE: 106
--
MOLECULE: Oc1ccc2c3c1O[C@H]1c4[nH]c5ccccc5c4C[C@@]4(O)[C@@H](C2)N(CC2CC2)CC[C@]314
VALUE_KIND: cell viability
UNITS_OF_MEASURE: %
DATA_VALUE: 101

====

# System: Caco-2
# TEST_NAME: drug sensitivity score (DSS) for viability; higher = more toxic; extreme values may be limits of the assay
# EXPERIMENTAL_CONDITIONS: 72 h
VALUE_KIND: drug sensitivity score

COMPOUND: CC1/C=C/C=C/C=C/C=C/C=C/C=C/C=C/C(OC2O[C@H](C)[C@@H](O)[C@H](N)[C@@H]2O)CC(O)C(C(=O)O)C(O)CC(=O)CC(O)CC(O)CC(O)CC(=O)CCCC(=O)CC(=O)OC1C(C)CC(C)C(O)CC(=O)c1ccc(N)cc1 (stereo not given in full)
DATA_VALUE: 0
--
COMPOUND: C[C@]12CC[C@@H]3c4ccc(OC(=O)N(CCCl)CCCl)cc4CC[C@H]3[C@@H]1CC[C@@H]2OP(=O)(O)O [estramustine-phosphate]
DATA_VALUE: 0
--
COMPOUND: CC(N)C12CC3CC(CC(C3)C1)C2 (stereo not given)
DATA_VALUE: 0
--
COMPOUND: Nc1ccccc1S(N)(=O)=O [2-aminobenzenesulfonamide]
DATA_VALUE: 0
--
COMPOUND: O=C(NCCCN1CCC2(CC1)OCc1ccccc12)[C@H]1CCCN1Cc1ccccc1
DATA_VALUE: 0
--
COMPOUND: Cc1nnc(C[C@@H]2C=C(c3ccc(Cl)cc3)c3ccccc3-n3c(C)nnc32)o1
DATA_VALUE: 4.9
--
COMPOUND: Cc1ncc(COP(=O)([O-])[O-])c(CN(CCN(CC(=O)O)Cc2c(COP(=O)([O-])O)cnc(C)c2O)CC(=O)O)c1O.[Mn].[Na+].[Na+].[Na+] [Mangafodipir (trisodium)]
DATA_VALUE: 0
--
COMPOUND: CCOc1cc2ncc(C#N)c(Nc3ccc(OCc4cccc(F)c4)c(Cl)c3)c2cc1NC(=O)/C=C/CN(C)C
DATA_VALUE: 8.6
--
COMPOUND: CCOc1ccc(-n2c([C@@H](C)N(Cc3cccnc3)C(=O)Cc3ccc(F)c(C(F)(F)F)c3)nc3ncccc3c2=O)cc1 (racemic)
DATA_VALUE: 0
--
COMPOUND: COc1ccc(C(=O)c2ccccc2O)c(O)c1
DATA_VALUE: 0
--
COMPOUND: C[N+]1(C)CCc2cc3c(cc2[C@H]1[C@@H]1OC(=O)c2c1ccc1c2OCO1)OCO3 [bicuculline-methochloride-(-)]
DATA_VALUE: 2.5
--
COMPOUND: O=C(COc1ccc(Cl)cc1)N1CCN(Cc2ccc3c(c2)OCO3)CC1 [fipexide]
DATA_VALUE: 0
--
COMPOUND: CC(C)(C)NCC(O)COc1cccc2[nH]c(C#N)cc12 (stereo not given)
DATA_VALUE: 0
--
COMPOUND: Cc1c(C)c2c(c(C)c1O)CCC(C)(C(=O)O)O2 (stereo not given)
DATA_VALUE: 0.8
--
COMPOUND: Clc1cccc(Nc2nnc(-c3ccccc3)c3ccccc23)c1
DATA_VALUE: 0
--
COMPOUND: Cc1ccc(S(=O)(=O)NCc2ccccc2)cc1
DATA_VALUE: 0
--
COMPOUND: O=P(O)(O)C(O)(Cn1ccnc1)P(=O)(O)O
DATA_VALUE: 0
--
COMPOUND: NC(=O)Nc1sc(-c2ccc(F)cc2)cc1C(N)=O
DATA_VALUE: 7.2
--
COMPOUND: O=c1ncn2nc(Sc3ccc(F)cc3F)ccc2c1-c1c(Cl)cccc1Cl
DATA_VALUE: 0.4
--
COMPOUND: COc1ccc(-n2nc(C(F)(F)F)cc2-c2ccc(Cl)cc2)cc1
DATA_VALUE: 0.2
--
COMPOUND: Nc1sc2c(c1C(=O)c1ccc(Cl)cc1)CCCC2
DATA_VALUE: 0
--
COMPOUND: CCCC(C)C1(CC)C(=O)NC(=O)NC1=O (stereo not given)
DATA_VALUE: 0.8
--
COMPOUND: COc1cc2c(cc1OC)CC(=O)N(CCCN(C)C[C@H]1Cc3cc(OC)c(OC)cc31)CC2
DATA_VALUE: 0
--
COMPOUND: CN1CCC(CNc2ccc3ncc(-c4cccc(OC(F)(F)F)c4)n3n2)CC1
DATA_VALUE: 3.9
--
COMPOUND: NC(N)=Nc1nc(CSCC/C(N)=N/S(N)(=O)=O)cs1
DATA_VALUE: 0
